Cited source: patent US20220396620A1

So I've got a bunch of binders here, and I need their Mean cAMP (% Amgen) values.
Molecular target: human cannabinoid receptor type 1 (CB1) (human, UniProt P21554 1-472)
Sequence (P21554 whole entry): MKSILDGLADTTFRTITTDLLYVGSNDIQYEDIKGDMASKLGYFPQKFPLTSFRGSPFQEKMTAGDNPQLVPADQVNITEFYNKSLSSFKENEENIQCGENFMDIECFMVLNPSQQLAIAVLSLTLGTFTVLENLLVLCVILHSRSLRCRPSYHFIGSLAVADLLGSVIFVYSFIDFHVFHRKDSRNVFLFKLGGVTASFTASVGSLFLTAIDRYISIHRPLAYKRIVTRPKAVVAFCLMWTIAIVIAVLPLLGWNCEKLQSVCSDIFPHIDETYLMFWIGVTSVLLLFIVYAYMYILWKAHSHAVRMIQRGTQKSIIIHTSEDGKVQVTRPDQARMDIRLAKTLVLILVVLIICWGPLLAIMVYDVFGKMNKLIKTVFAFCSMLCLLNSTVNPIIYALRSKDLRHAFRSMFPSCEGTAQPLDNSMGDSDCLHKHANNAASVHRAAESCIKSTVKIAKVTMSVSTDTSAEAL
Experiment: cell-based or functional assay
The figure you give is taken to be in % Amgen; do not add the unit.

State the recorded Mean cAMP (% Amgen) for this entry: M4 mouse anti-huCB-1 antibody (antibody, V domains shown) VH: QVQLQQSGAELVRPGSSVKISCKASGYEFNYYWMNWVKQRPGQGLEWIGQIYPGDGDINYNGKFKGKATLTSDKSSSTVYMQLSSLTSEDSAVYFCSRSKGNPFAYWGQGTLVTVSA VL: DIQMTQTTSSLSASLGDSVTISCRASQGIRNYLNWYQQKPDGTVKLLIYYTSRLHSGVPPRFSGSGSGTDYSLTISNLEQEDLATYFCQQGNTLPYTFGGGTKLEIK 41

State the recorded Mean cAMP (% Amgen) for this entry: M8 mouse anti-huCB-1 antibody (antibody, V domains shown) VH: QVQLQQPGAELVKPGASVKLSCKASGYTFTDYWMHWVKQRPGHGLEWIGEIYPSSGRANYNGNFKRKATLTVDKSSSTAYMQLSSLTSEDSAVYYCARSRGNYLPYWGHGTPVTVSA VL: QIVLTQSPAIMSASLGERVTMTCTAGSTVSSSYLHWYQQRPGSSPKLWIYGTSNLASGVPARFSGSGSGTSYSLTISSMEAEDAATYYCHQYHRSPPTFGGGTKLEIK 29

State the recorded Mean cAMP (% Amgen) for this entry: M6 mouse anti-huCB-1 antibody (antibody, V domains shown) VH: EVQLQQSGPELVKPGASVKISCKASGYTFTDYNLHWVKHGKSLEWIGYIYPYDGDTGYKQKFKGKATLTADKSSSTAYMELRSLTCEDSAVYYCARGYGNSWGAYWGQGTLVTVSA VL: EIVLTQSPTTMAASPGEKITITCSATSSISSNYLHWYQQKPGFSPKLLIYRTSNLASGVPARFSGSGSGTSYSLTIGTMEAEDVATYYCQQGSSIPYTFGGGTKLEIK 21
